System: CEM cells HIV-1 protection, formazan growth assay
Test: NCI AIDS Antiviral Assay
Details: measured here: growth of uninfected CEM cells
List of IC50 values.

>  <compound>
Nc1ccnc2c1ncn2[C@H]1C[C@H](O)[C@@H](CO)O1

>  <IC50>
> 200 µM

$$$$
>  <compound>
O=C1CN(CCCN2CCOCC2)CC(=O)N2CCCCN12

>  <IC50>
> 200 µM

$$$$
>  <compound>
COc1cc2c3c(c1)ncn3C(=O)CCS2

>  <IC50>
> 200 µM

$$$$
>  <compound>
COC(=O)n1nnc2ncccc21

>  <IC50>
> 200 µM

$$$$
>  <compound>
Cc1ccc2c(c1)C(=C(C#N)C#N)CCCS2(=O)=O

>  <IC50>
> 200 µM

$$$$
>  <compound>
COc1cc2c(cc1Oc1c(O)c(OC)cc3c1C(C)N(C)CC3)C(C)N(C)CC2 (stereo not given)

>  <IC50>
> 200 µM

$$$$
>  <compound>
c1ccc(Cc2nc(Cc3n[nH]c(Cc4ccccc4)n3)n[nH]2)cc1

>  <IC50>
> 200 µM

$$$$
>  <compound>
Cc1nc2n(c1C(N)=O)CCS2

>  <IC50>
> 200 µM

$$$$
>  <compound>
O=[N+]([O-])c1cnn(C2=CNc3ccccc3N=C2)c1

>  <IC50>
> 7.41 µM

$$$$
>  <compound>
CSc1ncnc2c1ncn2CCC(=O)O

>  <IC50>
> 200 µM

$$$$
>  <compound>
O=C(O)c1ccc(C(=O)c2ccccc2)c(C(=O)O)c1

>  <IC50>
> 200 µM

$$$$
>  <compound>
COC(=O)c1ccc(CCc2cc(O)ccc2O)cc1

>  <IC50>
4.9 µM

$$$$
>  <compound>
CCOC(=O)C(NC(C)=O)[CH](c1ccccc1)[Sn]([c]1ccccc1)([c]1ccccc1)[c]1ccccc1 (stereo not given)

>  <IC50>
7.08 µM

$$$$
>  <compound>
CCCO/N=[N+](\[O-])N(CC)CC

>  <IC50>
> 8910 µM

$$$$
>  <compound>
COC1CC(C)C(OC)c2cc(O)cc(c2O)NC(=O)/C(C)=C/C=C\C(C)C(OC(N)=O)/C(C)=C\C(C)C1OC (stereo not given)

>  <IC50>
0.676 µM

$$$$
